biological target: CFTR ΔF508 mutant (Homo sapiens, UniProt P13569, DEL508-508); construct: expressed in transfected cells; host or cells: CFBE41o- (adenoviral transduction); assay: YFP-halide influx assay for the CFTR-ΔF508 mutation, gluconate buffer; type: cell-based; conditions: CFBE41o- cells, forskolin 10.67 μM
Sequence (P13569 with tags, fused parts or gaps DEL508-508): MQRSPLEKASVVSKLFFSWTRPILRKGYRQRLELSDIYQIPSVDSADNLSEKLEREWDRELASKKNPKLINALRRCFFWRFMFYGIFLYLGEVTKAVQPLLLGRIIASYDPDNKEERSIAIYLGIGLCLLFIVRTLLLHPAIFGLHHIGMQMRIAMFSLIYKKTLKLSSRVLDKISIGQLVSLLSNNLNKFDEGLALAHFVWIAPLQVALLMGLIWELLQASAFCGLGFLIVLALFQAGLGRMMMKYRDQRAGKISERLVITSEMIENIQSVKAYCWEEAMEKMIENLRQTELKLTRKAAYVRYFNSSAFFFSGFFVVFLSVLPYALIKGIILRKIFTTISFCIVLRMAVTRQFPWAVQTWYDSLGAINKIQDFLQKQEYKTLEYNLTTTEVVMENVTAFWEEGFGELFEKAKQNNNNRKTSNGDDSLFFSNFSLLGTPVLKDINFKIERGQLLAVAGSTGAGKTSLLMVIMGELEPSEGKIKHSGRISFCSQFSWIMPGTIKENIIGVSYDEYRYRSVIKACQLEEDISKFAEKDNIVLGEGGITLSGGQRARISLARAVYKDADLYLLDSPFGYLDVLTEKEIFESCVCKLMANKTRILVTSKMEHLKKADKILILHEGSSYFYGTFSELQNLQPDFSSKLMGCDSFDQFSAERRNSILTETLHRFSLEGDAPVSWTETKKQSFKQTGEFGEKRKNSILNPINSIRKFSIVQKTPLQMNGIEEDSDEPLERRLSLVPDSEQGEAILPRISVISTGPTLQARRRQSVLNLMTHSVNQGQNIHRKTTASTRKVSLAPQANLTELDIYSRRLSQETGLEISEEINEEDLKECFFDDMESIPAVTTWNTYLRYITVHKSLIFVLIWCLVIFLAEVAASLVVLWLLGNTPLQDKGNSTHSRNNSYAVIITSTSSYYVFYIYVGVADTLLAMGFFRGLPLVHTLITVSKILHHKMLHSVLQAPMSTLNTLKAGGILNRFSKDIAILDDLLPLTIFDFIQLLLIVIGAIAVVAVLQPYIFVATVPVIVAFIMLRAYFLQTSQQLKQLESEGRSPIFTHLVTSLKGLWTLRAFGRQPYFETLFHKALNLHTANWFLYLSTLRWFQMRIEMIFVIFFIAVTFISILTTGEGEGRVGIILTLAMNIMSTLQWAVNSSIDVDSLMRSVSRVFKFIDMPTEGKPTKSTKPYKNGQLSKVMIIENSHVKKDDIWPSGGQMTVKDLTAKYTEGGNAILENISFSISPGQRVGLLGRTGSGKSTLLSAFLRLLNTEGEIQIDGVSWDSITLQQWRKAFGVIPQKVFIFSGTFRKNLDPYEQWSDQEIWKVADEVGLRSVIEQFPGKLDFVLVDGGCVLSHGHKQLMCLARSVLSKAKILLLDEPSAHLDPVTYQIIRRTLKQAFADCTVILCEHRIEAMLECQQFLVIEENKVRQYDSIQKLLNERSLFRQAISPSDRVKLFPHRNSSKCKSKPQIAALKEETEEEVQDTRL
Field: pEC50. Provide a value for each of the compounds that follow.
Quick note: pEC50 means taking -log10 of the concentration in moles per liter.

Query string: Tell me the measured pEC50 of CC(C)c1ccccc1S(=O)(=O)c1cc(C(N)=O)c(NC(=O)c2ccccc2F)s1 , please.
Result string: 7.65

Query string: Tell me the measured pEC50 of NC(=O)c1cc(S(=O)(=O)c2ccccc2F)sc1NC(=O)c1ccccc1F , please.
Result string: 6.86

Query string: Tell me the measured pEC50 of CN(C1CC1)S(=O)(=O)c1cc(C(N)=O)c(NC(=O)c2ccccc2F)s1 , please.
Result string: 7.09

Query string: Tell me the measured pEC50 of NC(=O)c1cc(S(=O)(=O)N2CCC(F)(F)CC2)sc1NC(=O)c1c(O)cc(F)cc1F , please.
Result string: 6.93
